Sourced from paper doi:10.1101/2022.10.28.514248v1

- assay.system: GDAP1ΔTM (Mus musculus, UniProt O88741)
- Sequence (O88741 1-322, stated change not applied): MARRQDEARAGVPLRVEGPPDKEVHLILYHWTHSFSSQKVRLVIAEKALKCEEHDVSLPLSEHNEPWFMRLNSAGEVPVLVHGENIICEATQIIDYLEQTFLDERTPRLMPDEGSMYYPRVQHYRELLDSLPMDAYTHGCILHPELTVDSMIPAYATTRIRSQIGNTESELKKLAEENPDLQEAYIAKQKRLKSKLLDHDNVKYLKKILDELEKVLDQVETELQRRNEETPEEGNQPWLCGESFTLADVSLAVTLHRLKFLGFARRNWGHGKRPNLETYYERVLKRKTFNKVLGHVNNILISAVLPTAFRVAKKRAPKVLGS
- test.name: native PAGE titration, band quantification, Hill fit
- Format: binding
measured.attribute: Kd (µM)

                                   molecule  observed_result
0  CCCCCC(O)/C=C/C=O (stereo not shown) [4-hydroxynonenal]              398
